The reported measurements were obtained from patent US9777005B2.

What pEC50 was measured for each of the following?
Biological target: human M1 receptor (hCHRM1) (Homo sapiens)
Sequence (P11229 1-460): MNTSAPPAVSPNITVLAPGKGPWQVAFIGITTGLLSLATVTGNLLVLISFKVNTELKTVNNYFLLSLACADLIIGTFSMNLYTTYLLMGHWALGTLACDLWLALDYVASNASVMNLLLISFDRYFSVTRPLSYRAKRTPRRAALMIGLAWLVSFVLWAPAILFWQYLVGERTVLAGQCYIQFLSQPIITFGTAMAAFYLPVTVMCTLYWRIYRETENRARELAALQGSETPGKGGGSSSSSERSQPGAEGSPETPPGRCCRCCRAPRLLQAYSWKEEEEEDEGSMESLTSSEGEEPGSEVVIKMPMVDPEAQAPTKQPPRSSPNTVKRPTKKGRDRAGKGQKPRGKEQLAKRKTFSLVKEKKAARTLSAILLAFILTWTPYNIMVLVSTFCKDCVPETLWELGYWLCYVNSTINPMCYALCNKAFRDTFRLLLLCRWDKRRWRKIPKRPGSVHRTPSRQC
Test: Measurement of M1 receptor positive allosteric modulator (M1PAM) activity, calcium fluorescence (FLIPRtetra) in CHO-K1 cells in the presence of acetylcholine at EC20
Conditions: inflection point of M1PAM activity, in the presence of acetylcholine at EC20 (final 0.6 nM), CHO-K1 cells expressing hCHRM1; read-out: IP value
Give bare numbers, as −log10 of the molar value.

Some solved entries appear below for comparison.
COMPOUND: Cn1cc(-c2ccc(CN3Cc4ccnc(Oc5cc(CC#N)ccc5F)c4C3=O)cc2)cn1
READOUT_NUMBER: 7.40
//
COMPOUND: Cn1ccc(-c2ccc(CN3Cc4ccnc(OCC5CCCO5)c4C3=O)cc2)n1 (single isomer, unassigned) [Example 246]
READOUT_NUMBER: 8.03
//
COMPOUND: Cn1cc(-c2ccc(CN3Cc4ccnc(OC5c6ncccc6CC5(C)C)c4C3=O)cc2)cn1 (centres unmarked)
READOUT_NUMBER: 7.92
//
COMPOUND: Cc1nn(C)cc1-c1ccc(CN2Cc3ccnc(Oc4cc(C(C)(C)O)ccc4F)c3C2=O)cc1
READOUT_NUMBER: 7.41
//
COMPOUND: Cc1cc(-c2ccc(CN3Cc4ccnc(Oc5c(F)cc(C#N)cc5F)c4C3=O)cc2)ccn1
READOUT_NUMBER: 8.16

Give me pEC50 for each of these compounds, listed below.
1. Cn1cc(-c2ccc(CN3Cc4cccc(O[C@H]5CCCC[C@@H]5O)c4C3=O)cn2)cn1 (relative stereo)
2. Cn1ccc(-c2ccc(CN3Cc4ccnc(OCC5CCCO5)c4C3=O)cc2)n1 (centres unmarked) [Example 79]
3. NC(=O)c1ccc(CN2Cc3ccnc(Oc4ccc(CC(F)(F)F)cc4F)c3C2=O)cc1

8.19
7.54
7.92
